Target: Beta-3 adrenergic receptor (Homo sapiens, UniProt P13945)
Sequence (P13945 whole entry): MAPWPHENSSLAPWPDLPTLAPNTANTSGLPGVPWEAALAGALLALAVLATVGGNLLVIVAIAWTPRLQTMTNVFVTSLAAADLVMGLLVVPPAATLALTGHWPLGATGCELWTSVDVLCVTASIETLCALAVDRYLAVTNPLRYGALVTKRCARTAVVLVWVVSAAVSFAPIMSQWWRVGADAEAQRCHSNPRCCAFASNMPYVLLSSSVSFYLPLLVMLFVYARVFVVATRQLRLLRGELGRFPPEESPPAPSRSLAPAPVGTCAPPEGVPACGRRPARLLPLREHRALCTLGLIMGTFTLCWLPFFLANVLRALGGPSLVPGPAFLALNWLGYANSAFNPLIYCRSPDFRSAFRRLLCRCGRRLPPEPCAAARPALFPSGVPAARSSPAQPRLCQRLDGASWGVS
Test: Antagonist activity at human beta-3 adrenergic receptor expressed in fenoterol-stimulated CHOK1 cells assessed as CRE-SPAP level by […]
Format: functional, cell-based, CHO-K1
measurement-name: Kd

Completed entries (count: 6):
{"molecule": "C=CCc1ccccc1OCC(O)CNCCNC(=O)CCCCCNC(=O)COc1ccc(/C=C/c2ccc3n2[B-](F)(F)[N+]2=C(c4cccs4)C=CC2=C3)cc1 (racemic)", "Kd": "23.4 nM"}
{"molecule": "O=C(CCCCCNC(=O)COc1ccc(/C=C/c2ccc3n2[B-](F)(F)[N+]2=C(c4cccs4)C=CC2=C3)cc1)NCCNCC(O)COc1cccc2ccccc12 (racemic)", "Kd": "63.1 nM"}
{"molecule": "C=CCc1ccccc1OCC(O)CNCCOCCOCCNC(=O)CCCCCNC(=O)COc1ccc(/C=C/c2ccc3n2[B-](F)(F)[N+]2=C(c4cccs4)C=CC2=C3)cc1 (racemic)", "Kd": "57.5 nM"}
{"molecule": "O=C(CCCCCNC(=O)COc1ccc(/C=C/c2ccc3n2[B-](F)(F)[N+]2=C(c4cccs4)C=CC2=C3)cc1)NCCOCCOCCNC[C@H](O)COc1cccc2ccccc12", "Kd": "107 nM"}
{"molecule": "O=C(CCCCCNC(=O)COc1ccc(/C=C/c2ccc3n2[B-](F)(F)[N+]2=C(c4cccs4)C=CC2=C3)cc1)NCCOCCOCCNCC(O)COc1cccc2ccccc12 (racemic)", "Kd": "57.5 nM"}
{"molecule": "C=CCc1ccccc1OC[C@@H](O)CNCCOCCOCCNC(=O)CCCCCNC(=O)COc1ccc(/C=C/c2ccc3n2[B-](F)(F)[N+]2=C(c4cccs4)C=CC2=C3)cc1", "Kd": "61.7 nM"}

Request: Indicate its recorded Kd; the molecule in question is C=CCc1ccccc1OC[C@@H](O)CNCCNC(=O)CCCCCNC(=O)COc1ccc(/C=C/c2ccc3n2[B-](F)(F)[N+]2=C(c4cccs4)C=CC2=C3)cc1
Result: 41.7 nM

Request: Indicate its recorded Kd; the molecule in question is O=C(CCCCCNC(=O)COc1ccc(/C=C/c2ccc3n2[B-](F)(F)[N+]2=C(c4cccs4)C=CC2=C3)cc1)NCCCCNC[C@H](O)COc1cccc2ccccc12
Result: 151 nM

Request: Indicate its recorded Kd; the molecule in question is O=C(CCCCCNC(=O)COc1ccc(/C=C/c2ccc3n2[B-](F)(F)[N+]2=C(c4cccs4)C=CC2=C3)cc1)NCCOCCOCCNCC(O)COc1cccc2[nH]ccc12 (racemic)
Result: 288 nM

Request: Indicate its recorded Kd; the molecule in question is O=C(CCCCCNC(=O)COc1ccc(/C=C/c2ccc3n2[B-](F)(F)[N+]2=C(c4cccs4)C=CC2=C3)cc1)NCCCCCCCCNCC(O)COc1cccc2ccccc12 (racemic)
Result: 115 nM

Request: Indicate its recorded Kd; the molecule in question is O=C(CCCCCNC(=O)COc1ccc(/C=C/c2ccc3n2[B-](F)(F)[N+]2=C(c4cccs4)C=CC2=C3)cc1)NCCNCC(O)COc1cccc2[nH]ccc12 (racemic)
Result: 178 nM

Request: Indicate its recorded Kd; the molecule in question is O=C(CCCCCNC(=O)COc1ccc(/C=C/c2ccc3n2[B-](F)(F)[N+]2=C(c4cccs4)C=CC2=C3)cc1)NCCCCCCCCNC[C@H](O)COc1cccc2ccccc12
Result: 141 nM

Request: Indicate its recorded Kd; the molecule in question is O=C(CCCCCNC(=O)COc1ccc(/C=C/c2ccc3n2[B-](F)(F)[N+]2=C(c4cccs4)C=CC2=C3)cc1)NCCNC[C@H](O)COc1cccc2ccccc12
Result: 26.3 nM

Request: Indicate its recorded Kd; the molecule in question is O=C(CCCCCNC(=O)COc1ccc(/C=C/c2ccc3n2[B-](F)(F)[N+]2=C(c4cccs4)C=CC2=C3)cc1)NCCCCNCC(O)COc1cccc2ccccc12 (racemic)
Result: 79.4 nM

Data credit: ChEMBL document CHEMBL1828559
